For each of the molecules below, state its Antifungal activity MIC.
# Tested on: Candida tropicalis KKP 334
# experiment.summary: antifungal activity in vitro, serial dilution in RPMI 1640
# Assay type: cell-based
// units = µg/mL; emit number, no label

Please give measured Antifungal activity MIC of the following entry: `C[C@@H]1[C@H](O)[C@@H](C)/C=C/C=C/C=C/C=C/C=C/C=C/C=C/[C@H](O[C@@H]2O[C@H](C)[C@@H](O)[C@H](NC(=O)[C@@H](N)Cc3ccc(I)cc3)[C@@H]2O)C[C@@H]2O[C@](O)(C[C@@H](O)C[C@@H](O)[C@H](O)CC[C@@H](O)C[C@@H](O)CC(=O)O[C@H]1C)C[C@H](O)[C@H]2C(=O)O` 4

Please give measured Antifungal activity MIC of the following entry: `CCN(CC)CCNC(=S)N[C@@H]1[C@H](O)[C@H](O[C@H]2/C=C/C=C/C=C/C=C/C=C/C=C/C=C/[C@H](C)[C@@H](O)[C@@H](C)[C@H](C)OC(=O)C[C@H](O)C[C@H](O)CC[C@@H](O)[C@H](O)C[C@H](O)C[C@]3(O)C[C@H](O)[C@@H](C(=O)O)[C@H](C2)O3)O[C@H](C)[C@H]1O` 2

Please give measured Antifungal activity MIC of the following entry: `C[C@@H]1[C@H](O)[C@@H](C)/C=C/C=C/C=C/C=C/C=C/C=C/C=C/[C@H](O[C@@H]2O[C@H](C)[C@@H](O)[C@H](NC(=S)NCc3ccncc3)[C@@H]2O)C[C@@H]2O[C@](O)(C[C@@H](O)C[C@@H](O)[C@H](O)CC[C@@H](O)C[C@@H](O)CC(=O)O[C@H]1C)C[C@H](O)[C@H]2C(=O)O` 4

====

# Test system: Candida albicans SC 5314
# experiment.summary: antifungal activity in vitro, broader spectrum
# Format: cell-based
metric.name: Antifungal activity MIC (µg/mL)
// units = µg/mL; emit number, no label

Please give measured Antifungal activity MIC of the following entry: C[C@@H]1[C@H](O)[C@@H](C)/C=C/C=C/C=C/C=C/C=C/C=C/C=C/[C@H](O[C@@H]2O[C@H](C)[C@@H](O)[C@H](NC(=S)NCCN3CCCCC3)[C@@H]2O)C[C@@H]2O[C@](O)(C[C@@H](O)C[C@@H](O)[C@H](O)CC[C@@H](O)C[C@@H](O)CC(=O)O[C@H]1C)C[C@H](O)[C@H]2C(=O)O [Compound A22] 2

====

# Test system: Candida arborea KKP 319
# experiment.summary: antifungal activity in vitro, broader spectrum
# Format: cell-based
metric.name: Antifungal activity MIC

Please give measured Antifungal activity MIC of the following entry: `C[C@@H]1[C@H](O)[C@@H](C)/C=C/C=C/C=C/C=C/C=C/C=C/C=C/[C@H](O[C@@H]2O[C@H](C)[C@@H](O)[C@H](NC(=S)NCCN3CCCCC3)[C@@H]2O)C[C@@H]2O[C@](O)(C[C@@H](O)C[C@@H](O)[C@H](O)CC[C@@H](O)C[C@@H](O)CC(=O)O[C@H]1C)C[C@H](O)[C@H]2C(=O)O` 2 µg/mL

Please give measured Antifungal activity MIC of the following entry: `C[C@@H]1[C@H](O)[C@@H](C)/C=C/C=C/C=C/C=C/C=C/C=C/C=C/[C@H](O[C@@H]2O[C@H](C)[C@@H](O)[C@H](NC(=O)[C@H](N)c3ccccc3)[C@@H]2O)C[C@@H]2O[C@](O)(C[C@@H](O)C[C@@H](O)[C@H](O)CC[C@@H](O)C[C@@H](O)CC(=O)O[C@H]1C)C[C@H](O)[C@H]2C(=O)O` 4 µg/mL

Please give measured Antifungal activity MIC of the following entry: `C[C@@H]1[C@H](O)[C@@H](C)/C=C/C=C/C=C/C=C/C=C/C=C/C=C/[C@H](O[C@@H]2O[C@H](C)[C@@H](O)[C@H](NC(=O)[C@@H](N)Cc3ccccc3)[C@@H]2O)C[C@@H]2O[C@](O)(C[C@@H](O)C[C@@H](O)[C@H](O)CC[C@@H](O)C[C@@H](O)CC(=O)O[C@H]1C)C[C@H](O)[C@H]2C(=O)O` 4 µg/mL
